tested-target: hCA IX (Homo sapiens)
measurement-protocol: stopped-flow CO2 hydrase assay, hCA IX
study-conditions: ratio KI hCA I / KI hCA IX

compound | Selectivity index I/IX
NS(=O)(=O)c1cccc(-n2nnc(S(=O)(=O)c3ccccc3)c2-c2ccccc2)c1 [Compound 10a] | 23.35
COc1ccc(-c2c(S(=O)(=O)c3ccccc3)nnn2-c2ccc(S(N)(=O)=O)cc2)cc1Br | 324.62
COc1ccc(-c2c(S(=O)(=O)c3ccccc3)nnn2-c2cccc(S(N)(=O)=O)c2)cc1Br [Compound 10h] | 352.32
NS(=O)(=O)c1cccc(-n2nnc(S(=O)(=O)c3ccccc3)c2-c2ccc(Br)cc2)c1 [Compound 10e] | 25.33
NS(=O)(=O)c1ccc(-n2nnc(S(=O)(=O)c3ccccc3)c2-c2ccc(Cl)cc2)cc1 | 184.42
NS(=O)(=O)c1cccc(-n2nnc(S(=O)(=O)c3ccccc3)c2-c2ccc(-c3ccccc3)cc2)c1 [Compound 10k] | 91.02
NS(=O)(=O)c1cccc(-n2nnc(S(=O)(=O)c3ccccc3)c2-c2cccc(Br)c2)c1 [Compound 10f] | 24.10
